system: SN12C; assay: GI50 of drug in presence of dasatinib; higher = less potent; conditions: treatment: drug + dasatinib (fixed dose, not stated); 5 days
Could you please report measured GI50 of drug for the items listed next?

A selection of reference data follows.
Compound | Value type | Obs value
CCCS(=O)(=O)Nc1ccc(F)c(C(=O)c2c[nH]c3ncc(Cl)cc23)c1F [PLX-4720] + Cc1nc(Nc2ncc(C(=O)Nc3c(C)cccc3Cl)s2)cc(N2CCN(CCO)CC2)n1 | GI50 of drug | > 10 µM
Cc1ccc(S(=O)(=O)Nc2nc3ccccc3nc2Nc2ccc3nsnc3c2)cc1 [XL147] + Cc1nc(Nc2ncc(C(=O)Nc3c(C)cccc3Cl)s2)cc(N2CCN(CCO)CC2)n1 | GI50 of drug | > 10 µM

Please turn your attention to the following entry.
The compound identified as O=c1cc(N2CCOCC2)oc2c(-c3cccc4c3sc3ccccc34)cccc12 + Cc1nc(Nc2ncc(C(=O)Nc3c(C)cccc3Cl)s2)cc(N2CCN(CCO)CC2)n1 registered its GI50 of drug at > 10 µM
